Each recorded value in this set is attributed to patent US20080075726A1.

target: T1, recombinant human IL-6 (human, UniProt P05231 30-212, limits assumed); experiment: competition ELISA, rhIL-6 in solution against captured IL-6
T1 construct: also called rhIL6; human recombinant IL-6
readout-kind: pIC50
The meaning of pIC50 here: minus log10 of the concentration in molar units.

mAb 202 (antibody, V domains shown) VH: QVTLKESGPALVKPTQTLTLTCTFSGFSLTTSGMCVSWIRQPPGKALEWLALIYWDDDKRYNPSLRSRLTITKDTSKNQVVLTMTNMDPVDTATYYCARSHDDYLYYALDYWGQGTLVT VL: DIQMTQSPSSLSASVGDSVTITCRASQTISDFLNWYQQKPGKAPKLLIHASSNLQSGVPSRFSGSGSGTDFTLTISDLQPEDFATYSCQQTYSTLGTFGQGTRLE ... 8.62
mAb 248 (antibody, V domains shown) VH: QVTLKESGPTLVKPTQTLTLTCTFSGFSLSTSGVAVGWIRQPPGKALEWLALIFWDDDKHYSPSLKSRLTITKDTSKNQVVLTMTNMDPVDTATYYCARSYDDYLYYALDYWGQGTLVTVSS VL: DIVMTQSPSSLSASVGDRVTITCRASQTISSYLNWYQQKPGKPPKLLIYAASSLESGVPSRFSGSGSGTEFTLTISSLQPEDLATYYCQQANSFPLTFGGGTKLE ... 8.70

Next:
**Q:** Quick one: pIC50 for mAb 810 (antibody, V domains shown) VH: QVTLKESGPTLVKPTQTLTLTCSFSGFSLSTSGVGVGWVRQPPGKALEWLAFIFWDDDKYYSPSLESRLTITKDTSKNQVVLTMTNMDPVDTATYYCARSYDDYLYYSLDYWGQGTLVT VL: DIQMTQSPSSLSAFVGDGVTMTCWASQSINDYLNWYHQRPGEAPELLVFAASNLQIGVPSRFRGSGSETYFTLTINSLQPEDSGTYFCQNGHSFPLTFGGGTKLEI ?
**A:** 9.66
